biological target: HLA-A*0201 (human); assay: competition with 125I-labelled standard peptide for purified HLA-A*0201, gel filtration
Class (by relative binding ratio (IC50 of standard peptide / IC50 of test peptide)) -- band 1: < 0.0003; band 2: ≥ 0.0003 and < 0.001; band 3: ≥ 0.001

Binder	Category
CTFELSQMV (modifications not checked) [HPV16 E1 … (position 353)]	band 3
PLNPAEKL (modifications not checked) [HPV18 E6 peptide PLNPAEKL (position 111)]	band 1
EIDGVNHQHL (modifications not checked) [HPV18 E7 peptide … (position 40)]	band 1
FLQGSVICFV (modifications not checked) [HPV16 E1 493 peptide …]	band 3
NTSLQDIEIT (modifications not checked) [HPV18 E6 peptide … (position 22)]	band 1

Q. In plain terms, what class is IAAFGLTPSI (modifications not checked) [HPV16 E1 238 peptide …] ?
A. band 1

Q. Next binder up: SLQDIEITCV (modifications not checked) [HPV18 E6 peptide … (position 24)]
A. band 3

Q. Next binder up: CMCCKCEARI (modifications not checked) [HPV18 E7 peptide … (position 63)]
A. band 3

Q. Next binder up: GLTPSIADSI (modifications not checked) [HPV16 E1 242 peptide …]
A. band 1

Q. Next binder up: KLTNTGLYNL (modifications not checked) [HPV18 E6 peptide … (position 92)]
A. band 3

Q. Next binder up: AAFGLTPSI (modifications not checked) [HPV16 E1 … (position 239)]
A. band 3

Q. Next binder up: GTGCNGWFYV (modifications not checked) [HPV16 E1 12 peptide …]
A. band 2

Q. Next binder up: CMCCKCEA (modifications not checked) [HPV18 E7 peptide CMCCKCEA (position 63)]
A. band 2

Origin of measurements: patent US7026443
